Biological target: Torsin-1A-interacting protein 2 (Homo sapiens)
Assay: LULL1 binders on small-molecule microarray, primary screen, cell lysate, human LULL1 lysate, 635/667 nm fluorescence (AID 1092);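 further: probe is lysate of COS7 cells overexpressing human LULL1; score merges per-feature 667 nm fluorescence with signal-to-noise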
Conditions: hLULL1 lysate binding, 635 nm fluorescence, higher = more signal
Listed here: items and their measured composite z-score.
A bare number is all that is needed in reply.

compound: COc1cccc([C@@H]2[C@@H](C)CC[C@H]3C(=O)N4[C@H](c5cccc(OC)c5)[C@@H](C)CC[C@H]4C(=O)N23)c1
composite z-score: 0.474

# input Find composite z-score for CCCCO[C@H]1C[C@H]2C(Br)=C[C@@]1(CO)C(=O)[C@]21CO1 on Torsin-1A-interacting protein 2 (Homo sapiens) and write it down.
# output -0.0735

# input Provide composite z-score, system Torsin-1A-interacting protein 2 (Homo sapiens), entry CCOC(=O)C1=C[C@@H](c2ccccc2)N(S(=O)(=O)c2ccc(C)cc2)[C@H]1c1ccc(F)cc1
# output 3.06

###

Test: S. cerevisiae RM11-1a growth modifiers, primary screen, strain RM11-1a, OD600, basal, 24 h (AID 1177);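 further: cultures grown under basal conditions with no added stressor; test concentration not given here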
Conditions: OD600, 24 h, higher = more signal, called active from +8 up or from −8 down
Activity calls are given as the source filed them.
reported.endpoint: z-score

molecule: C[C@@H]1CC[C@H]2C(=O)N3[C@@H](CC[C@@H](C)[C@@H]3c3cccc(N4CCOCC4)c3)C(=O)N2[C@H]1c1cccc(Br)c1
measured.result: -0.123 (inactive)

molecule: COc1ccc(C(=O)Nc2ccc(CN3C(=O)[C@]4(O[C@H](CCn5cc(CCO)nn5)[C@@H]([Si](C)(C)c5ccc(OC)cc5)[C@@H]4C)c4ccccc43)cc2)cc1
measured.result: 2.44 (inactive)

molecule: CO[C@@H]1COC(=O)[C@H](C)NC(=O)CC=C[C@@H](C)[C@H](OC)COC(=O)[C@H](C)NC(=O)CC=C[C@H]1C
measured.result: -0.161 (inactive)

# input Give the reported z-score for this molecule. CC(C)CN1C(=O)[C@@]2(Cc3ccccc31)c1ccccc1C(=O)N(C1CCCCC1)[C@H]2c1ccc(CO)cc1
# output -1.12 (inactive)

# input Using known records, supply z-score for O=C1OCC=C[C@H]2OC34C=CCN(Cc5ccccc5)C(=O)[C@H]3N(CCCCCO)C(=O)[C@@H]4[C@@H]12 (stereo partly drawn)
# output -0.512 (inactive)

# input Please report the measured z-score for CCc1cccc(NC(=O)O[C@H]2[C@H](OC(=O)Nc3ccccc3)[C@@H](OC(=O)Nc3ccccc3)[C@@H](OC)O[C@@H]2CO)c1
# output 2.4 (inactive)

# input Return reported z-score. Input molecule: [N-]=[N+]=NCc1ccccc1C[C@@]1(C(=O)O)N=C(c2ccc(OCCCO)cc2)O[C@@H]1c1ccccc1N=[N+]=[N-]
# output -0.268 (inactive)

# input Retrieve z-score measured for C[C@@H]1CC[C@H]2C(=O)N3CCC[C@H]3C(=O)N2[C@H]1c1ccc(Br)cc1 and print it.
# output 0.393 (inactive)

###

Experiment: adipocyte viability effects, profiling panel, cell-based, 3T3-L1 adipocytes, calcein-AM fluorescence, 48 h, basal (AID 1163); further: test concentration not given here
Details: 3T3-L1 adipocytes viability, higher = more signal
reported.endpoint: z-score
Quick one: just the number, no unit, thanks!

Some solved cases for reference:
compound: COCCOC(=O)N1C(=O)[C@@]2(c3cc(C#CCNC(N)=O)ccc31)[C@H](C(=O)N1CCCCCCC1)[C@H]1C(=O)O[C@H](c3ccccc3)[C@H](c3ccccc3)N1[C@@H]2c1ccccc1OCCO
reported.endpoint: z-score
measured.result: -0.177
//
compound: CCCCCCc1nc(C2CC2)c(C)c2c1[Si](C(C)C)(C(C)C)OC2
reported.endpoint: z-score
measured.result: 2.88
//
compound: C=CCC(OC(C)=O)[C@@H]1[C@@H](N(Cc2ccc(-c3cccc(C(F)(F)F)c3)o2)C(=O)Cc2ccc(F)cc2)c2cc(OCCCO)ccc2N1C(=O)c1ccc(-c2ccccc2)cc1 (stereo partly specified)
reported.endpoint: z-score
measured.result: 0.145
//
compound: CN1C(=O)C2C=CC(C(O)c3ccc(N(C)C)cc3)N(Nc3ccc([N+](=O)[O-])cc3[N+](=O)[O-])C2C1=O (stereo unspecified)
reported.endpoint: z-score
measured.result: -0.459
//
compound: C=CCc1cccc([C@@H]2[C@@H](C)CC[C@H]3C(=O)N4[C@H](c5cccc(CC=C)c5)[C@@H](C)CC[C@H]4C(=O)N23)c1
reported.endpoint: z-score
measured.result: 1.29

# input Determine from records and report z-score for CO[C@@H]1COC(=O)CC=C[C@H](C)COC(=O)[C@H](Cc2ccccc2)NC(=O)CC=C[C@H]1C
# output 0.509

# input Indicate its recorded z-score; the compound in question is COCCOC(=O)N1C(=O)[C@@]2(c3cc(C#CCCO)ccc31)[C@H](c1ccc(OCCO)cc1)N1[C@H](c3ccccc3)[C@H](c3ccccc3)OC(=O)[C@H]1[C@@H]2C(=O)NC[C@H](O)c1ccccc1
# output 1.33

# input Provide z-score value for the following compound: C=CC[C@]1(C(=O)O)N=C(c2ccc(OCCCO)cc2)O[C@H]1c1ccccc1
# output 1.88
